- experimental_details: Half life determined in rats after iv administration
- Assay type: ADME, organism-based
- experimental_context: rat, in vivo
measure: half-life (min)
// return numeric value only (unit: min, not printed)

Look up half-life for this compound: COc1ccc(S(=O)(=O)Oc2cc(OC)c(OC)c(OC)c2)cc1N
33.6

###

- experimental_details: Area under the curve determined under pharmacokinetic behavior of the 10 mg/kg oral dose of compound for 0-6 hours
- Type: ADME, organism-based
- Set-up: time < 6 hr, dose 10 mg/kg, route oral
- experimental_context: rat, in vivo
measure: AUC at 6 h (ng·h/mL)
Numeric answer only, unit ng·h/mL assumed.

Any idea what its AUC at 6 h is? The molecule is COc1ccc(S(=O)(=O)Oc2cc(OC)c(OC)c(OC)c2)cc1NC(=O)CCN
800

###

- experimental_details: Percent bioavailability (F) in rats after oral dose of 10 mg/kg
- Type: ADME, organism-based
- experimental_context: rat, in vivo
measure: bioavailability (%)
Report as a plain number; the unit % is understood.

Consider the compound shown here: COc1ccc(S(=O)(=O)Oc2cc(OC)c(OC)c(OC)c2)cc1NC(=O)CCN What is its recorded bioavailability?
100

###

- system_under_test: Tubulin alpha chain (Sus scrofa)
- Sequence (P02550 whole entry, looked up): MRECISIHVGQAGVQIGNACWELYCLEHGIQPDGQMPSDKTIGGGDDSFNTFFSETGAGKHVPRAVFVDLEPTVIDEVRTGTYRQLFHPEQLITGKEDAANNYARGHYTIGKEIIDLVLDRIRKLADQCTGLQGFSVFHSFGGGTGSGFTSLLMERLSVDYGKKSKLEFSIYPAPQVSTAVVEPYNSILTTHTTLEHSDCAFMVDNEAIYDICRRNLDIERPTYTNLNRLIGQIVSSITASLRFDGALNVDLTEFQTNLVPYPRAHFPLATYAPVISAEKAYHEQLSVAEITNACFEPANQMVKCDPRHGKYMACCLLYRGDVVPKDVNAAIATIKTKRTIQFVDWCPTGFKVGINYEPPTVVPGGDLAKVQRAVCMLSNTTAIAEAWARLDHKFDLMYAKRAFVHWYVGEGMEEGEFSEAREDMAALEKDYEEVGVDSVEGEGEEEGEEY
- experimental_details: Concentration required to inhibit polymerization of tubulin
Response field label: string, one of condition met (IC50 strictly below 7 µM) or condition not met.

Could you please tell me whether IC50 recorded for COc1ccc(S(=O)(=O)Oc2cc(OC)c(OC)c(OC)c2)cc1N is less than 7 µM?
condition met

For COc1cc(S(=O)(=O)Oc2ccc3[nH]ccc3c2)cc(OC)c1OC , is the recorded IC50 below the cut-off of 7 µM?
condition met

Hello, I'm reviewing records and need to know if IC50 of COc1ccc(S(=O)(=O)Oc2cc(OC)c(OC)c(OC)c2)cc1 is below 7 µM. Could you check?
condition not met

Say whether its IC50 is strictly beneath 7 µM. Entry: COc1cc(/C=C\c2ccc(N(C)C)cc2)cc(OC)c1OC
condition met

Please indicate whether the reported IC50 of COc1ccc(/C=C\c2cc(OC)c(OC)c(OC)c2)cc1 is strictly below 7 µM.
condition met

Determine whether this compound shows IC50 lower than 7 µM (ties excluded): COc1cc(OS(=O)(=O)c2ccc(N(C)C)cc2)cc(OC)c1OC
condition not met

Hi there! Is IC50 for COc1cc(S(=O)(=O)Oc2ccc3c(ccn3C)c2)cc(OC)c1OC below 7 µM, do you know?
condition met

Field: below-cutoff. Rule: recorded IC50 strictly less than 7 µM. Subject: COc1cc(OS(=O)(=O)c2ccc(C)cc2)cc(OC)c1OC
condition not met

###

- experimental_details: Percent bioavailability (F) in rats after iv administration
- Assay type: ADME, organism-based
- experimental_context: rat, in vivo
measure: bioavailability (%)
Use % as the unit, but write only the number.

Returns the measured bioavailability for the input compound. Input: COc1ccc(S(=O)(=O)Oc2cc(OC)c(OC)c(OC)c2)cc1N
0
